Catalogue of pIC50 readings, one per entry.
biological target: human TLR7 (Homo sapiens (Human)); experiment: TLR7 inhibition reporter assay (HEK-Blue SEAP); assay type: cell-based; settings: HEK-Blue cells overexpressing human TLR7, gardiquimod 7.5 μM stimulation
Sequence (Q9NYK1 27-1049): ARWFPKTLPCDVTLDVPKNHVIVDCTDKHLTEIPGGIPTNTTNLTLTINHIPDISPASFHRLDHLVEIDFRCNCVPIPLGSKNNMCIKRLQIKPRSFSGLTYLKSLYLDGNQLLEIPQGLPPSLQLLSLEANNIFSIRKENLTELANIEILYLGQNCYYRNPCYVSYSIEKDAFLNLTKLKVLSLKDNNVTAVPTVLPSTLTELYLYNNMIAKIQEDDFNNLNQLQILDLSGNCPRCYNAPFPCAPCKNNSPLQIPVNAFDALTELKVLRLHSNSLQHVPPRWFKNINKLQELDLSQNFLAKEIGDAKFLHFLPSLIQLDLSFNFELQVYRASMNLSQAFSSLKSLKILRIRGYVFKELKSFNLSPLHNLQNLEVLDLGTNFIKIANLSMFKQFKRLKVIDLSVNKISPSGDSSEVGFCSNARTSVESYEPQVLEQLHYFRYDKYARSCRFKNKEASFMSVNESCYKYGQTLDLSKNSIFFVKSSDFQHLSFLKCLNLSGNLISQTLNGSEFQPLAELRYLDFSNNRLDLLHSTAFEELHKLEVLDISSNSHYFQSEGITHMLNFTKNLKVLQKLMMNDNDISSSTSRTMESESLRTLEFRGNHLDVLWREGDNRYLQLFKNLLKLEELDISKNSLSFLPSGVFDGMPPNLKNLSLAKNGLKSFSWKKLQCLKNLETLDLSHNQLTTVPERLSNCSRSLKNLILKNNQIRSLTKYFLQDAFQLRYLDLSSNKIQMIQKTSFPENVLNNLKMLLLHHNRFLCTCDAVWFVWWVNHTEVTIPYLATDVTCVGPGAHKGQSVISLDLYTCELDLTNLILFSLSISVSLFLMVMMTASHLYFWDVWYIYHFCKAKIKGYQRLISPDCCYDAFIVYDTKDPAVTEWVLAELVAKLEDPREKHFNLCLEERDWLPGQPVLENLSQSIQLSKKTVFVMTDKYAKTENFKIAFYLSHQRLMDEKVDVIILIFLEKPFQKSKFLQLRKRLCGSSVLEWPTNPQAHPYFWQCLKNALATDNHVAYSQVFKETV
pIC50: −log10 of the molar value.

{"COMPOUND": "Cc1cc(-c2[nH]c3cnc(C4CCC(N5CC6(COC6)C5)CC4)c(F)c3c2C(C)C)cn2ncnc12 (stereo not drawn) [Example 132]", "pIC50": 8.47}
{"COMPOUND": "CNCCN1CCC(c2cc3c(C)c(-c4ccc(OC)c(OC)c4)[nH]c3cn2)CC1 [Example 8]", "pIC50": 5.18}
{"COMPOUND": "Cc1c(-c2[nH]c3cnc(N4CC5(CN(CC6CCC6)C5)C4)c(F)c3c2C(C)C)cn2ncnc2c1C [Example 404]", "pIC50": 7.49}
{"COMPOUND": "COc1cc(-c2[nH]c3cnc(C4CCC(NC5CCOCC5)CC4)c(C)c3c2C(C)C)cn2ncnc12 (stereo not drawn) [Example 241]", "pIC50": 8.46}
{"COMPOUND": "Cc1c(-c2[nH]c3cnc(C4CCC(NC5COC5)CC4)cc3c2C(C)C)cn2ncnc2c1C (stereo not drawn) [Example 334]", "pIC50": 9.46}
{"COMPOUND": "Cc1cc(-c2[nH]c3cnc(C4CCN(CC(C)(C)O)CC4)c(F)c3c2C(C)C)cn2ncnc12 [Example 128]", "pIC50": 8.72}
{"COMPOUND": "CCN(C)C1CCC(c2cc3c(C(C)C)c(-c4cc(OC)c5ncnn5c4)[nH]c3cn2)CC1 (stereo not drawn) [Example 331]", "pIC50": 6.58}
{"COMPOUND": "COc1cc(-c2[nH]c3cnc(C4CCN(C5COC5)CC4)c(F)c3c2C(C)C)cn2ncnc12 [Example 38]", "pIC50": 8.55}
{"COMPOUND": "Cc1cc(-c2[nH]c3cnc(C4CCN(C(=O)CN(C)C)CC4)cc3c2C(C)C)cn2ncnc12 [Example 5]", "pIC50": 8.02}
{"COMPOUND": "Cc1cc(-c2[nH]c3cnc(N4CCC(N(C)CC(F)F)CC4)c(F)c3c2C(C)C)cn2ncnc12 [Example 257]", "pIC50": 8.28}
{"COMPOUND": "Cc1c(-c2[nH]c3cnc(C4CCC(NC(C)C)CC4)cc3c2C(C)C)cn2ncnc2c1C (stereo not drawn) [Example 318]", "pIC50": 8.22}
{"COMPOUND": "Cc1c(-c2[nH]c3cnc(N4CCN(C(C)C)CC4)c(F)c3c2C(C)C)cn2ncnc2c1C [Example 412]", "pIC50": 8.17}
{"COMPOUND": "COc1cc(-c2[nH]c3cnc(N4CCN(C5COC5)CC4)c(F)c3c2C(C)C)cn2ncnc12 [Example 382]", "pIC50": 8.35}
{"COMPOUND": "Cc1c(-c2[nH]c3cnc(N4CCC(NC5COC5)CC4)c(C)c3c2C(C)C)cn2ncnc2c1C [Example 237]", "pIC50": 8.80}
{"COMPOUND": "Cc1c(-c2[nH]c3cnc(N4CCN(CC5CCOCC5)CC4)c(C)c3c2C(C)C)cn2ncnc2c1C [Example 419]", "pIC50": 7.49}
{"COMPOUND": "COc1cc(-c2[nH]c3cnc(N4CCC(N(C)C(C)C)CC4)c(C)c3c2C(C)C)cn2ncnc12 [Example 86]", "pIC50": 9.43}
{"COMPOUND": "COc1cc(-c2[nH]c3cnc(N4CC5(CN(C(=O)CN6CCOCC6)C5)C4)c(F)c3c2C(C)C)cn2ncnc12 [Example 367]", "pIC50": 6.80}
{"COMPOUND": "COc1cc(-c2[nH]c3cnc(C4CCC(N5CC6(COC6)C5)C4)cc3c2C(C)C)cn2ncnc12 (stereo not drawn) [Example 208]", "pIC50": 7.92}
{"COMPOUND": "Cc1c(-c2[nH]c3cnc(C4CCC(NCC(C)(C)C)CC4)c(F)c3c2C(C)C)cn2ncnc2c1C (stereo not drawn) [Example 200]", "pIC50": 8.52}
{"COMPOUND": "Cc1c(-c2[nH]c3cnc(N4CCC(NCC(C)(C)O)CC4)c(C)c3c2C(C)C)cn2ncnc2c1C [Example 88]", "pIC50": 9.21}
{"COMPOUND": "COc1cc(-c2[nH]c3cnc(C4CCC(N(C)C)CC4)cc3c2C(C)C)cn2ncnc12 (stereo not drawn) [Example 340]", "pIC50": 5.89}
{"COMPOUND": "COc1cc(-c2[nH]c3cnc(C4CCC(NCC(C)(C)C)CC4)cc3c2C(C)C)cn2ncnc12 (stereo not drawn) [Example 325]", "pIC50": 8.62}
{"COMPOUND": "COc1cc(-c2[nH]c3cnc(C4CCC(N5CCC5)CC4)cc3c2C(C)C)cn2ncnc12 (stereo not drawn) [Example 324]", "pIC50": 8.52}
{"COMPOUND": "COc1cc(-c2[nH]c3cnc(N4CCC(NC5COC5)CC4)c(F)c3c2C(C)C)cn2ncnc12 [Example 42]", "pIC50": 8.80}
{"COMPOUND": "COc1cc(-c2[nH]c3cnc(C4CCC(N(C)CC(N)=O)CC4)c(F)c3c2C(C)C)cn2ncnc12 (stereo not drawn) [Example 78]", "pIC50": 8.37}
{"COMPOUND": "Cc1c(N2CCC(NC34CC(C3)C4)CC2)ncc2[nH]c(-c3cc(C)c4ncnn4c3)c(C(C)C)c12 [Example 148]", "pIC50": 8.96}
{"COMPOUND": "COc1cc(-c2[nH]c3cnc(N4CC5(C4)CN(C4COC4)C5)c(F)c3c2C(C)C)cn2ncnc12 [Example 369]", "pIC50": 7.57}
{"COMPOUND": "Cc1c(-c2[nH]c3cnc(C4CCC(NCC(C)(C)C)CC4)c(C)c3c2C(C)C)cn2ncnc2c1C (stereo not drawn) [Example 58]", "pIC50": 7.22}
{"COMPOUND": "Cc1cc(-c2[nH]c3cnc(C4CCC(NCC(C)(C)O)CC4)c(F)c3c2C(C)C)cn2ncnc12 (stereo not drawn) [Example 49]", "pIC50": 9.34}
{"COMPOUND": "COc1cc(-c2[nH]c3cnc(N4CCC(N(C)CC(=O)N(C)C)CC4)c(F)c3c2C(C)C)cn2ncnc12 [Example 72]", "pIC50": 8.82}
